The reported measurements were obtained from BigSolDB 2.1.

settings: in acetic acid, 298.15 K

# Smi, solubility (mole fraction)
data = [
    ("O=[N+]([O-])c1ccc(O)c2ncccc12", 0.00416),
]

* * *

details: in isopropanol, 288.15 K

# Smi, solubility (mole fraction)
rows = [
    ("O=[N+]([O-])c1ccc(O)c2ncccc12", 0.000741),
]

* * *

conditions: in acetone, 293.15 K

# Smi, solubility (mole fraction)
records = [
    ("O=[N+]([O-])c1ccc(O)c2ncccc12", 0.00624),
]

* * *

details: in methanol, 285.65 K
Parameter: solubility (mole fraction)

# Smi, Reported
rows = [
    ("O=[N+]([O-])c1ccc(O)c2ncccc12", 0.000586),
]

* * *

conditions: in toluene, 278.15 K

# Smi, solubility (mole fraction)
measured = [
    ("O=[N+]([O-])c1ccc(O)c2ncccc12", 0.00229),
]

* * *

conditions: in ethyl acetate, 298.15 K

# Smi, solubility (mole fraction)
data = [
    ("O=[N+]([O-])c1ccc(O)c2ncccc12", 0.00667),
]

* * *

settings: in methanol, 290.65 K
Parameter: solubility (mole fraction)

# Smi, Parameter, Reported
rows = [
    ("O=[N+]([O-])c1ccc(O)c2ncccc12", "solubility (mole fraction)", 0.000701),
]

* * *

settings: in n-propanol, 300.65 K

# Smi, solubility (mole fraction)
records = [
    ("O=[N+]([O-])c1ccc(O)c2ncccc12", 0.00131),
]

* * *

conditions: in acetic acid, 303.15 K
Parameter: solubility (mole fraction)

# Smi, Parameter, Reported
rows = [
    ("O=[N+]([O-])c1ccc(O)c2ncccc12", "solubility (mole fraction)", 0.00484),
]

* * *

conditions: in n-propanol, 285.65 K
Parameter: solubility (mole fraction)

# Smi, Parameter, Reported
measured = [
    ("O=[N+]([O-])c1ccc(O)c2ncccc12", "solubility (mole fraction)", 0.000748),
]

* * *

settings: in acetonitrile, 290.65 K

# Smi, solubility (mole fraction)
data = [
    ("O=[N+]([O-])c1ccc(O)c2ncccc12", 0.0018),
]

* * *

conditions: in ethanol, 285.65 K
Parameter: solubility (mole fraction)

# Smi, Parameter, Reported
data = [
    ("O=[N+]([O-])c1ccc(O)c2ncccc12", "solubility (mole fraction)", 0.00075),
]
